Assay: recombinant UMI read abundance after kanamycin selection (control-corrected) (log10(CPM+1)); higher = more efficient recombination; extreme values may be limits of the assay; sequences stand for … in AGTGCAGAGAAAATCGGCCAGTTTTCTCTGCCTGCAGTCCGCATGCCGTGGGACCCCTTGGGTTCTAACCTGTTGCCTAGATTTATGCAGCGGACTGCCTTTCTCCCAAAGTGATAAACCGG…AGGTTGGTTTCACT; site = the 11-nt donor;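 further: IS621 bridge recombinase in Escherichia coli cells against a fixed T5 target plasmid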
Property measured: recombinant UMI read abundance (log10)
Please reply with the number alone, leaving off any unit.

Requested field: recombinant UMI read abundance (log10). Item: ACGGTATCATGGACCGGTTTTCCCGGTAATCCGTATTTGCA (site ACAGTATCTTG) 2.96

Requested field: recombinant UMI read abundance (log10). Item: CTTCAATCATGGACCGGTTTTCCCGGTAATCCGTATTTGGT (site CTTCAATCTAC) 1.96

###

Assay: recombinant UMI read abundance after kanamycin selection (control-corrected) (log10(CPM+1)); higher = more efficient recombination; extreme values may be limits of the assay; sequences stand for … in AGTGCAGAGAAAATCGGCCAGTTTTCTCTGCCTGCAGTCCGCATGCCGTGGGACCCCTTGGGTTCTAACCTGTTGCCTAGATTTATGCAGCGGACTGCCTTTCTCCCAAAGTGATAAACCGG…AGGTTGGTTTCACT; site = the 11-nt donor
Reported recombinant UMI read abundance (log10) values are given for each entry in this list.
Please reply with the number alone, leaving off any unit.

Some solved cases for reference:
- Sequence entry: "GTATGCACATGGACCGGTTTTCCCGGTAATCCGTATTTGTA (site GTATGAACTTA)"
  Property measured: "recombinant UMI read abundance (log10)"
  Value: 0.66
- Sequence entry: "CTAGTAACATGGACCGGTTTTCCCGGTAATCCGTATTTGTC (site CTAGTAACTGA)"
  Property measured: "recombinant UMI read abundance (log10)"
  Value: 2.78

Requested field: recombinant UMI read abundance (log10). Item: TACGTGACATGGACCGGTTTTCCCGGTAATCCGTATTTGCT (site TACATGACTAG) 1.65

Requested field: recombinant UMI read abundance (log10). Item: GTTGAGGCATGGACCGGTTTTCCCGGTAATCCGTATTTGTG (site GTGGAGGCTCA) 0.355

Requested field: recombinant UMI read abundance (log10). Item: TAGTTGGCATGGACCGGTTTTCCCGGTAATCCGTATTTGTG (site TATTTGGCTCA) 0.00327

###

Assay: recombinant UMI read abundance after kanamycin selection (control-corrected) (log10(CPM+1)); higher = more efficient recombination; extreme values may be limits of the assay; sequences stand for … in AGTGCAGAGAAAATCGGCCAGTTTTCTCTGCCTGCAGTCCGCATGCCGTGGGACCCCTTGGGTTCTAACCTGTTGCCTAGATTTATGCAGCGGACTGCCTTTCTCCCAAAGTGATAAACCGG…AGGTTGGTTTCACT; site = the 11-nt donor
Reported recombinant UMI read abundance (log10) values are given for each entry in this list.
Please reply with the number alone, leaving off any unit.

Some solved cases for reference:
- Sequence entry: "CGCGGTACATGGACCGGTTTTCCCGGTAATCCGTATTTGCT (site CGCAGTACTAG)"
  recombinant UMI read abundance (log10): 1.64
- Sequence entry: "AGGTGCGCATGGACCGGTTTTCCCGGTAATCCGTATTTGTA (site AGGTGCGCTTA)"
  recombinant UMI read abundance (log10): 1.81
- Sequence entry: "AGCTTAGCATGGACCGGTTTTCCCGGTAATCCGTATTTGTT (site AGCTTAGCTAA)"
  recombinant UMI read abundance (log10): 0.0106
- Sequence entry: "ATATCAACATGGACCGGTTTTCCCGGTAATCCGTATTTGTA (site ATATCAACTTA)"
  recombinant UMI read abundance (log10): 1.61
- Sequence entry: "TTAGCTCCATGGACCGGTTTTCCCGGTAATCCGTATTTGTG (site TTAGCTTCTCA)"
  recombinant UMI read abundance (log10): 0.0128

Requested field: recombinant UMI read abundance (log10). Item: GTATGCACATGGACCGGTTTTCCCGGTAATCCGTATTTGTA (site GTATGCACTCA) 0.0356

Requested field: recombinant UMI read abundance (log10). Item: CTCCCTCCATGGACCGGTTTTCCCGGTAATCCGTATTTGAG (site CTCCCTACTCT) 0.00615

Requested field: recombinant UMI read abundance (log10). Item: CAGATCCCATGGACCGGTTTTCCCGGTAATCCGTATTTGGT (site CAGATCCCTAC) 1.42

Requested field: recombinant UMI read abundance (log10). Item: ATTGCACCATGGACCGGTTTTCCCGGTAATCCGTATTTGGT (site ATTGCACCTAC) 0.00574
